Molecular target: M.SssI (Spiroplasma monobiae, UniProt P15840)
Construct: purchased NEB (New England Biolabs, Inc., Ipswich, MA, USA)
Sequence (P15840 whole entry): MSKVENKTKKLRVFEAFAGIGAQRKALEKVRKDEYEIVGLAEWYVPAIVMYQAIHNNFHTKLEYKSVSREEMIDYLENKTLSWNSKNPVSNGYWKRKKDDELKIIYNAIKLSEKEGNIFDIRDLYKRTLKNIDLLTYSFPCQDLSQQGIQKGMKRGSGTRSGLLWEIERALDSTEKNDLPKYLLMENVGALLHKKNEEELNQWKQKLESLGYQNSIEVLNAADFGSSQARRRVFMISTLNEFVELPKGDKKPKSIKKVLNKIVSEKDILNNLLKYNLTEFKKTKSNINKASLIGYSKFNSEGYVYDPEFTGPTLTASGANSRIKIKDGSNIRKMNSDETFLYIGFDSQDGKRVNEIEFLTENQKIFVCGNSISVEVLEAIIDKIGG
Assay: smFRET B-Z transition-based DNA methylation (DMT inhibition) assay with M.SssI, UM core substrate
Format: biochemical
Conditions: [SAM] = 10 μM, M.SssI, Figure S8; read-out: IC50 (degree of inhibition of M.SssI methylation activity) with low [SAM]
pIC50: −log10 of the molar value.

>  <MOLECULE>
O=C(O[C@@H]1Cc2c(O)cc(O)cc2O[C@@H]1c1cc(O)c(O)c(O)c1)c1cc(O)c(O)c(O)c1 [EGCG, epigallocatechin gallate]

>  <pIC50>
> 5.30

$$$$

###

human DNA methyltransferase 1 (DNMT1) (Homo sapiens, UniProt P26358) measurements of IC50, listed per entry.
Sequence (P26358 whole entry): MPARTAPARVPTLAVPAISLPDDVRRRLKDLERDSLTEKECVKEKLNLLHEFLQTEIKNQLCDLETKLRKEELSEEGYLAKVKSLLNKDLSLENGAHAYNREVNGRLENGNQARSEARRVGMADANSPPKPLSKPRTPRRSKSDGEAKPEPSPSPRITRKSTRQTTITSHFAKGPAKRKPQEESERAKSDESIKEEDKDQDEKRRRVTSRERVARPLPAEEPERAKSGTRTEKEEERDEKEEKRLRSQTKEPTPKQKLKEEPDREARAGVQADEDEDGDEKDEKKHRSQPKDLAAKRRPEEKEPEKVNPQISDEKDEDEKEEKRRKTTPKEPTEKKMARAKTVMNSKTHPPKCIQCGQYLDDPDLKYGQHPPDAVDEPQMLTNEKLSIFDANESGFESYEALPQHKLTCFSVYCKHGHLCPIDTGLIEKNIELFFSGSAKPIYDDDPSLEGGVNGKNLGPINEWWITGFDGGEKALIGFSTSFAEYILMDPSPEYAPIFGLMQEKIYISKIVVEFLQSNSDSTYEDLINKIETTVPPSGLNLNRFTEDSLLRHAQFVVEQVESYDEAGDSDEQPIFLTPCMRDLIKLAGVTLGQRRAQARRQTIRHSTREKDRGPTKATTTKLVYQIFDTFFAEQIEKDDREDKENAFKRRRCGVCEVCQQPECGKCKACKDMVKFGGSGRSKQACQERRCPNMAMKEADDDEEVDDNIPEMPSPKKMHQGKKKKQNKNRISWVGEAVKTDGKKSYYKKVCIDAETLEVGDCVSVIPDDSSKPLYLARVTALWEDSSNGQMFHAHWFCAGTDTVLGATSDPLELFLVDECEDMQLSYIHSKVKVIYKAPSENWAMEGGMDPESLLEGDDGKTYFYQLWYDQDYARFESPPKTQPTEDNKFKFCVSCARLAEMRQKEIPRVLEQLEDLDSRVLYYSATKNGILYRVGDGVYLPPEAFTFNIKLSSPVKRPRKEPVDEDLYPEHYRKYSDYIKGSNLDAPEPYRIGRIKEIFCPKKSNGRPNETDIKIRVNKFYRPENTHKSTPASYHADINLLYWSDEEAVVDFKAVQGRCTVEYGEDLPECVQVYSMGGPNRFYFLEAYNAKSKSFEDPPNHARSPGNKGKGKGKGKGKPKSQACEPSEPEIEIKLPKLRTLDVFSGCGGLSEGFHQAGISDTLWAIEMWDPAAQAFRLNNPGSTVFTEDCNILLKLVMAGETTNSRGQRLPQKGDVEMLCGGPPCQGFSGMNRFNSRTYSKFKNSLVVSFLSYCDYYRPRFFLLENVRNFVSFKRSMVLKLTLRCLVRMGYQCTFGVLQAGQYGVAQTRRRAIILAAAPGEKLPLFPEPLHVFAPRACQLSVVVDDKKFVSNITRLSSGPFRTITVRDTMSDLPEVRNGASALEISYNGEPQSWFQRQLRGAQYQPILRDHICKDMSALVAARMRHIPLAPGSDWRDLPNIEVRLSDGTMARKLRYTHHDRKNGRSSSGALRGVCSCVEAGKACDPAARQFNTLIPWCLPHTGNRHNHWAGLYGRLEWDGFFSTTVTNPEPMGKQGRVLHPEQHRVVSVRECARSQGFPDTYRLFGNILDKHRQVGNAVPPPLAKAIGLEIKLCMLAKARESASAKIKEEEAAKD

>  <COMPOUND>
O=c1c(-c2ccc(O)cc2)coc2cc(O)cc(O)c12 [genistein]

>  <SUBJECT_OF_TEST>
human DNA methyltransferase 1 (DNMT1) (Homo sapiens, UniProt P26358)

>  <IC50>
~400 µM

$$$$
>  <COMPOUND>
O=C(O[C@@H]1Cc2c(O)cc(O)cc2O[C@@H]1c1cc(O)c(O)c(O)c1)c1cc(O)c(O)c(O)c1 [EGCG, epigallocatechin gallate]

>  <SUBJECT_OF_TEST>
human DNA methyltransferase 1 (DNMT1) (Homo sapiens, UniProt P26358)

>  <IC50>
~100 µM

$$$$
>  <COMPOUND>
COc1cc(/C=C/C(=O)CC(=O)/C=C/c2ccc(O)c(OC)c2)ccc1O [curcumin]

>  <SUBJECT_OF_TEST>
human DNA methyltransferase 1 (DNMT1) (Homo sapiens, UniProt P26358)

>  <IC50>
~1.3 µM

$$$$
